Reference source for all entries: PubChem BioAssay AID651636

ASSAY TARGET: G-protein coupled receptor 183 (Homo sapiens) (UniProt P32249)
Sequence (P32249 whole entry, looked up, the tested form may be a part): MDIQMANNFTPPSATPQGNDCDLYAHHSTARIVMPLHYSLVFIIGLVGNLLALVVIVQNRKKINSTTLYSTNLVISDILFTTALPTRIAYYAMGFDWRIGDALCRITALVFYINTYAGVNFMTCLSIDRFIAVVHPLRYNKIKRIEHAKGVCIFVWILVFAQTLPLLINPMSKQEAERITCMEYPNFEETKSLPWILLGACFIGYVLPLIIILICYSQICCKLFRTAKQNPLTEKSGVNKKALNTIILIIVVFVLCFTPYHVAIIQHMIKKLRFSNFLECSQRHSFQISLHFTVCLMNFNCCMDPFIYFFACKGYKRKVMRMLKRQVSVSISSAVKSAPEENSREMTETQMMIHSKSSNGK
ASSAY REMARKS: EBI2 receptor antagonists, beta-arrestin recruitment, primary screen, cell-based, luminescence, 7a,25-OHC stimulation, uHTS (AID 651636);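 also: enzyme fragment complementation signal reports receptor beta-arrestin coupling in cells; 0% = agonist plus DMSO wells and 100% = wells without agonist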
CONDITION NOTES: 7a,25-OHC stimulated, at 5 µM, active compounds read high
The campaign covered roughly 360,000 compounds. About 3,000 (0.83%) were called active. For the sample, actives were picked, then their nearest neighbours and some compounds at random.
# inhibition annotations
All answers are understood in %, so give the number only.

// solved cases for inhibition follow
COc1cc(NC(=O)COC(=O)CSc2ccc3ccccc3c2)c(C)cc1[N+](=O)[O-] | -6.04
COC(=O)CC(=O)N1CCN(c2ccc(Cl)c(Cl)c2)CC1 | -5.75
Cc1cc(OCC(=O)N2CCN(c3ncccn3)CC2)ccc1Cl | 86.6

-- ask May I ask what inhibition has been recorded for Cc1cc(S(=O)(=O)N2CCOCC2)ccc1OCC(=O)N1CCOCC1 ?
-- reply -8.03

-- ask May I ask what inhibition has been recorded for Cc1cccc(C(=O)NNC(=O)CSc2nnc(C(C)C)n2C)c1 ?
-- reply 2.91

-- ask May I ask what inhibition has been recorded for COC(=O)c1ccc(NC(=O)CSc2nnc(Cc3cccn3C)n2-c2ccc(F)cc2)cc1 ?
-- reply -2.09

-- ask May I ask what inhibition has been recorded for Cc1cc2nc3n(c2cc1C)CC1CC(C(=O)NCCC(C)C)N(C)C31 (configuration not stated) ?
-- reply 6.24

-- ask May I ask what inhibition has been recorded for COc1ccc(-n2c(Cc3cccn3C)nnc2SCC(=O)Nc2cc(C)cc(C)c2)cc1 ?
-- reply 49.5

-- ask May I ask what inhibition has been recorded for CCN(Cc1ccncc1)C(=O)c1cccc(S(=O)(=O)N2CCOCC2)c1 ?
-- reply -5.08

-- ask May I ask what inhibition has been recorded for O=C(COc1ccc(Cl)cc1[N+](=O)[O-])N1CCCCC1 ?
-- reply 5.52

-- ask May I ask what inhibition has been recorded for CCOC(=O)N1CCN(S(=O)(=O)c2ccc(Br)cc2)CC1 ?
-- reply 8.56

-- ask May I ask what inhibition has been recorded for CCn1c(SCC(=O)NNC(=O)c2ccc(OC)cc2)nnc1C(C)C ?
-- reply 12.9

-- ask May I ask what inhibition has been recorded for CSc1ccc(Cl)c(C(=O)OCC(=O)N2CCNC2=O)c1 ?
-- reply 5.05

-- ask May I ask what inhibition has been recorded for Cc1ccc(S(=O)(=O)NC2(C(F)(F)F)NC(=O)N(CCc3ccccc3)C2=O)cc1 (configuration not stated) ?
-- reply -2.6

-- ask May I ask what inhibition has been recorded for COc1ccc(-c2nc3c(s2)CCc2onc(-c4ccc(OC)cc4)c2-3)cc1 ?
-- reply -3.33

====

# inhibition annotations
ASSAY TARGET: G-protein coupled receptor 183 (Homo sapiens) (UniProt P32249)
ASSAY REMARKS: EBI2 receptor antagonists, beta-arrestin recruitment, primary screen, cell-based, luminescence, 7a,25-OHC stimulation, uHTS (AID 651636);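 also: enzyme fragment complementation signal reports receptor beta-arrestin coupling in cells; 0% = agonist plus DMSO wells and 100% = wells without agonist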
CONDITION NOTES: 7a,25-OHC stimulated, at 5 µM, active compounds read high
Hit rate of the full screen: of about 360,000 compounds, about 3,000 (0.83%) were called active. The full list was thinned out, with actives kept by preference.
All answers are understood in %, so give the number only.

-- ask Please state recorded inhibition (tested on G-protein coupled receptor 183 (Homo sapiens) (UniProt P32249)) of CC(C)Cn1c(N2CCN(C(=O)/C=C/c3ccccc3)CC2)nc2ccccc21
-- reply 59.1

-- ask Please state recorded inhibition (tested on G-protein coupled receptor 183 (Homo sapiens) (UniProt P32249)) of COc1ccc(C)cc1NC(=O)CSc1nnc(CC(=O)Nc2ccccc2F)n1C
-- reply 6.35

-- ask Please state recorded inhibition (tested on G-protein coupled receptor 183 (Homo sapiens) (UniProt P32249)) of CCOC(=O)c1cnc(SCc2nc(N)nc(Nc3ccc(OC)cc3)n2)nc1N
-- reply -2.38

-- ask Please state recorded inhibition (tested on G-protein coupled receptor 183 (Homo sapiens) (UniProt P32249)) of N#C/C(=C\c1ccccc1)c1n[nH]c(Cn2cncn2)n1
-- reply -5.28

-- ask Please state recorded inhibition (tested on G-protein coupled receptor 183 (Homo sapiens) (UniProt P32249)) of O=C(NCCNc1ccc([N+](=O)[O-])cc1)c1cccc2c(Br)cccc12
-- reply 44.2

-- ask Please state recorded inhibition (tested on G-protein coupled receptor 183 (Homo sapiens) (UniProt P32249)) of CCC1([N+](=O)[O-])COC(c2ccc(C(C)C)cc2)OC1 (configuration not stated)
-- reply -3.46

-- ask Please state recorded inhibition (tested on G-protein coupled receptor 183 (Homo sapiens) (UniProt P32249)) of O/N=C(\c1ccc2c(c1)OCCO2)C1CCCCC1
-- reply 4.5
